From: PubChem BioAssay (NCI)

protocol text: NCI Yeast Anticancer Drug Screen. Data for the cln2 rad14 strain (AID 165);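 note: 0% = growth equal to vehicle treated cultures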
assay setup: S. cerevisiae cln2 rad14 strain, at 5.0 µM (retest, dose inferred, filed as 0.5), active compounds read high
This is part of a sample that, as a whole, favours compounds with a hit. Of some 79,000 tested, about 15% had one in any assay.
// label = Yes if growth inhibition is not less than 20%, otherwise No

INPUT: Confirm if growth inhibition reported for the molecule COc1cc2c(Cc3ccc(OC)c(OC)c3)[n+](Cc3ccccc3)ccc2cc1NCc1ccccc1 is 20% or above.
OUTPUT: Yes

INPUT: Try the molecule CCOC(=O)c1c(C)c2c(n1C)CCc1sc(N)nc1-2
OUTPUT: No

INPUT: Try the molecule CC(C)(C)c1cc(C(c2cc3c(cc2O)OCO3)N2CCOCC2)cc(C(C)(C)C)c1O (centres undefined)
OUTPUT: Yes

INPUT: Try the molecule CCCC/C=C(/CCCNCCCC)[Si](C)(C)C
OUTPUT: Yes

INPUT: Try the molecule Cn1c(=S)c2[nH]c(SCCN3CCCCC3)nc2n(C)c1=O
OUTPUT: Yes

INPUT: Try the molecule CCCCCCCCCCOC(=O)c1cc[n+](C)cc1
OUTPUT: No

INPUT: Try the molecule Fc1ccc(CN2COc3c(ccc4cccnc34)C2)cc1
OUTPUT: No

INPUT: Try the molecule O=C(O)C1C2CC3CC(C2)CC1C3 (centres undefined)
OUTPUT: No

INPUT: Try the molecule O=S1(=O)C(C(O)(c2ccccc2)c2ccccc2)CCCN1c1ccccc1 (centres undefined)
OUTPUT: No

INPUT: Try the molecule CC(=O)OC1C(O)C(C)OC(OC(=O)C2CCC3C(C2)OC2(CC(OC(=O)/C=C/c4ccccc4)C(C)CO2)C32CO2)C1OC1OC(C)C(O)C(O)C1O (centres undefined)
OUTPUT: No

INPUT: Try the molecule Cc1ccc(NC(=O)CSC(N)=O)cc1C
OUTPUT: No

INPUT: Try the molecule Nc1ccc2c(c1)Cc1c(Cl)cccc1-2
OUTPUT: No

INPUT: Try the molecule NC(=S)C(=S)N=Cc1c(N)[nH]n(-c2ccccc2)c1=O
OUTPUT: Yes

INPUT: Try the molecule CC(C)(C)NC(=S)N/N=C/c1ccccc1O
OUTPUT: Yes

INPUT: Try the molecule COC(=O)c1nnn(-c2cccc(C(F)(F)F)c2)c1C(=O)c1ccc(Cl)c(Cl)c1
OUTPUT: No

INPUT: Try the molecule COc1ccc2ccccc2c1Cc1c(OC)ccc2ccccc12
OUTPUT: No

INPUT: Try the molecule COC(=O)C1=C(C(=O)OC)C2C(C)=CC(C)=CN2C(C(=O)OC)=C1C(=O)OC (centres undefined)
OUTPUT: No

INPUT: Try the molecule CCCCCCCCCSC(=S)N(C)NC(=O)c1ccccn1
OUTPUT: No

INPUT: Try the molecule C=C1CCCCC1C(C(=O)O)(c1ccccc1)c1ccccc1 (centres undefined)
OUTPUT: Yes

---

protocol text: NCI Yeast Anticancer Drug Screen. Data for the sgs1 mgt1 strain (AID 161);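 note: 0% = growth of cultures given vehicle only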
assay setup: S. cerevisiae sgs1 mgt1 strain, at 50.0 µM
The panel holds about 79,000 compounds, 15% with a hit somewhere; the sample as a whole holds those more often. Calls of active or inactive are those of the source. No stated cut-off is given here; in the data, active means growth inhibition above about 70%; inactive means the rest.
Use one of these outcomes when replying: active, inactive

INPUT: Record lookup: outcome of this test for NNc1cc(C(F)(F)F)nc2ccccc12 ?
OUTPUT: inactive

INPUT: Try the molecule Cc1ccc(/C=C2\CCCC(CN(C)C)C2=O)cc1 (stereo not given)
OUTPUT: active

INPUT: Try the molecule COc1cc(C2C(Cl)C(=O)N2NC(=O)c2ccccc2O)cc(OC)c1OC (stereo not given)
OUTPUT: active

INPUT: Try the molecule COc1ccc(/C=C2\Sc3scc(-c4ccc([N+](=O)[O-])cc4)[n+]3C2=O)cc1OC
OUTPUT: inactive

INPUT: Try the molecule O=[N+]([O-])/C(=C\c1cccs1)c1ccccc1
OUTPUT: active

INPUT: Try the molecule Cc1ccc(NC(=S)SCc2ccc3c(c2)OCO3)cc1Cl
OUTPUT: active

INPUT: Try the molecule CC(C)N=C(NC(C)C)SCCCCCCSC(=NC(C)C)NC(C)C
OUTPUT: inactive

INPUT: Try the molecule CC1CCC2(NC1)OC1CC3[C@@H]4CC=C5C=CCC[C@]5(C)C4CC[C@]3(C)C1C2C (stereo not given in full)
OUTPUT: active

INPUT: Try the molecule N#CC(=C1C=CC(=NOC(=O)Nc2ccccc2)C=C1)c1ccccc1
OUTPUT: active

INPUT: Try the molecule OC(c1cc(-c2ccccc2)nc2c(Cl)cc(Cl)cc12)C1CCCCN1 (stereo not given)
OUTPUT: active

INPUT: Try the molecule CN(C)CCC1(C2=CCCC2)CC/C(=C\c2ccc(Cl)cc2)C1=O (stereo not given)
OUTPUT: active

INPUT: Try the molecule C#Cc1cccc(N=Cc2cc(Cl)cc(Cl)c2O)c1
OUTPUT: active

INPUT: Try the molecule Cc1cc(C[P+](c2ccccc2)(c2ccccc2)c2ccccc2)c(C)cc1C[P+](c1ccccc1)(c1ccccc1)c1ccccc1
OUTPUT: active

INPUT: Try the molecule CC(/C=C1\C(=O)N(C)C(CC(C)C(Cl)(Cl)Cl)C(=O)N1C)C(Cl)(Cl)Cl (stereo not given)
OUTPUT: inactive

INPUT: Try the molecule Cc1cc(Cc2ccccc2Cl)ccc1O
OUTPUT: active

INPUT: Try the molecule CC12CCC(O)CC1=CCC1C2CCC2(C)C(NC(=O)C(Cc3ccc(O)cc3)NC(=O)OCc3ccccc3)CCC12 (stereo not given)
OUTPUT: inactive

INPUT: Try the molecule CCCCCCCCN(CCCCCCCC)CC(O)c1cc(-c2ccc(OC)cc2)nc2cc(Cl)ccc12 (stereo not given)
OUTPUT: inactive

INPUT: Try the molecule COC(=O)C12CCC(C)(C)CC1C1=CCC3C4(C)CC(O)C(O)C(C)(C(=O)OC)C4CCC3(C)C1(CO)CC2 (stereo not given)
OUTPUT: active

INPUT: Try the molecule O=C(Oc1c(Cl)cc(Cl)c(Cl)c1Cl)Oc1c(Cl)cc(Cl)c(Cl)c1Cl
OUTPUT: inactive

INPUT: Try the molecule CC1=Cc2cc3[n-]c(cc4nc(cc5[n-]c(cc1n2)cc5C)C(C)=C4CCC(=O)O)c(CCC(=O)O)c3C.[Pd+2]
OUTPUT: inactive

INPUT: Try the molecule C#CC(CC(C)CC(C)(C)C)NC (stereo not given)
OUTPUT: active

INPUT: Try the molecule CCCCCN(CCCCC)CCCNc1ccc(C)c2sc3ccccc3c(=O)c12
OUTPUT: active

INPUT: Try the molecule CN1CCN(CC(=O)c2c(-c3ccccc3)[nH]c3ccccc23)CC1
OUTPUT: inactive

INPUT: Try the molecule N#C/C(=C\c1cccnc1)c1csc2ccccc12
OUTPUT: active

INPUT: Try the molecule O=[N+]([O-])c1ccccc1NCCO
OUTPUT: inactive

---

protocol text: NCI Yeast Anticancer Drug Screen. Data for the sgs1 mgt1 strain (AID 161);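 note: 0% = growth of cultures given vehicle only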
assay setup: S. cerevisiae sgs1 mgt1 strain, at 50.0 µM (retest, dose inferred, filed as 5.0)
The panel holds about 79,000 compounds, 15% with a hit somewhere; the sample as a whole holds those more often. Activity calls are given as the source filed them. Rule as the data show it: active = growth inhibition above about 70%; inactive = the rest.
Use one of these outcomes when replying: class 1 (active), class 0 (inactive)

INPUT: Record lookup: outcome of this test for O=C1c2ccccc2C(=O)c2c(OCCOCCO)cccc21 ?
OUTPUT: class 0

INPUT: Try the compound CN1COc2c(Cl)cc(Cl)cc2C1
OUTPUT: class 1

INPUT: Try the compound CCN(CC)P(=S)(c1ccccc1CCP(=S)(c1ccccc1)c1ccccc1)N(CC)CC
OUTPUT: class 0

INPUT: Try the compound O=C(O)Cc1cc(I)c(Oc2ccc(O)c(I)c2)c(I)c1
OUTPUT: class 1

---

protocol text: NCI Yeast Anticancer Drug Screen. Data for the mec2-1 strain (AID 157)
assay setup: S. cerevisiae mec2-1 strain, at 5.0 µM (retest, dose inferred, filed as 0.5), active compounds read high
About 79,000 compounds went through this panel and 15% of them were active in at least one assay; those are over-represented in the sample as a whole.
quantity measured: growth inhibition (%)
Enter your answer as a number in %; do not include the unit.

INPUT: Reported growth inhibition, molecule COc1ccc(C2=C(Cl)C(=O)N(c3ccccc3C)C(=O)C2(Cl)Cl)cc1 : ____
OUTPUT: 17

INPUT: Try the molecule Cc1c(N=Nc2c(S(=O)(=O)O)cc3cc(S(=O)(=O)O)c(N=Nc4c(C)n(C)n(-c5ccccc5)c4=O)c(O)c3c2O)c(=O)n(-c2ccccc2)n1C
OUTPUT: -18

INPUT: Try the molecule S=C=NCCCCCCN=C=S
OUTPUT: 41

INPUT: Try the molecule CCN(CC)CC(O)CNc1cc(C)nc(/N=C(\N)Nc2ccc(Cl)c(Cl)c2)n1 (centres undefined)
OUTPUT: -21

INPUT: Try the molecule CCCCCCOC(=O)Nc1ccc(S(=O)(=O)N2CCCCC2)cc1
OUTPUT: -9

INPUT: Try the molecule CC/S(=N\S(=O)(=O)c1ccc(C)cc1)c1cccc[n+]1[O-] (centres undefined)
OUTPUT: 82

INPUT: Try the molecule CC(=O)c1cccc([N+](=O)[O-])c1
OUTPUT: -2

INPUT: Try the molecule Cc1ccc(N2C(=O)CSC2=S)cc1Br
OUTPUT: 3

INPUT: Try the molecule CSC(=S)CC(O)[C@@H]1CC2c3ccccc3C1c1ccccc12 (some centres undefined)
OUTPUT: 1
